Test Method Notes: Vapour pressure of fluorocarbons (Table 1)
Type: physicochemical
Cond: 37° C.
Property: Vapour Pressure P37° C. (mm Hg)
Write the value in mm Hg as a bare number.

                                   molecule  value_reported
0  FC(F)(F)C(F)(F)C(F)(F)C(F)(F)C1(F)OC(F)(F)C(F)(F)C1(F)F (stereo not drawn) [Perfluorobutyl-tetrahydrofuran]              51
1  FC(F)(F)C(F)(F)C(F)(F)C(F)(F)C(F)(F)C(F)(F)C(F)(F)C(F)(F)Br [Perfluorooctyl bromide]              14
2  FC(F)(F)C(F)(F)C(F)(F)C(F)(F)C=CC(F)(F)C(F)(F)C(F)(F)C(F)(F)F            12.6
3  FC1(F)OC(F)(F)C(F)(F)N(C(F)(F)C2(F)C(F)(F)C(F)(F)C(F)(F)C(F)(F)C2(F)F)C1(F)F               4
4  FC(F)(F)C(F)(F)C(F)(F)C(F)(F)N(C(F)(F)C(F)(F)C(F)(F)C(F)(F)F)C(F)(F)C(F)(F)C(F)(F)C(F)(F)F               1

What does the record list as Vapour Pressure P37° C. for FC(F)(F)C1(F)C(F)(F)C(F)(F)C(F)(F)C(F)(F)C1(F)F ? 180

What does the record list as Vapour Pressure P37° C. for FC(F)(F)C(F)(F)C(F)(F)N(C(F)(F)C(F)(F)C(F)(F)F)C(F)(F)C(F)(F)C(F)(F)F ? 18.5

What does the record list as Vapour Pressure P37° C. for FC1(F)C(F)(F)C(F)(F)C2(F)C(F)(F)C(F)(F)C(F)(F)C(F)(F)C2(F)C1(F)F (stereo not drawn) ? 12.5

What does the record list as Vapour Pressure P37° C. for FC(F)(F)C(F)(F)C(F)(F)C(F)(F)C(F)(F)C(F)(F)OC(F)(F)C(F)(F)C(F)(F)C(F)(F)C(F)(F)C(F)(F)F ? 2
